- assay-text: Lipophilicity, logD of compound at pH 7.4
- Assay type: physicochemical
- settings: buffer
endpoint: logD
Respond using a number only.

Known logD results, listed for orientation:
* CN1CCN(c2ccc(F)cc2CN2CCCN(c3ccc(N4CCOCC4)cc3)C2=O)CC1 | 1.6
* O=C1CCCCN1c1cccc(C(=O)N(c2ncccc2Cl)[C@@H]2CCCNC2)c1 | -0.9

# logD of O=C([C@@H]1C[C@H]1c1cccc(N2CCCCC2=O)c1)N1CCN(C2CCC2)CC1 = 1.6

Input O=C1CCCN1c1cnc(NCc2c(F)ccc3c2CCO3)c2cn[nH]c(=O)c12 . Output logD: 1.8

Data point: COCC(=O)N1CCC(COc2ccc(N3CCCC3=O)cc2)C1 (stereo not given) ; logD = 0.2

Data point: C[C@]1(CS(=O)(=O)N2CC=C(C#Cc3cccc(N4CCCC4=O)c3)CC2)NC(=O)NC1=O ; logD = 1.5

The measured logD associated with O=C(C1CC1c1ccc(N2CCCC2=O)cc1)N1CCN(C2CCC2)CC1 (stereo not given) reads 2

Lab note: measured logD of CC(=O)N1CCc2cc(-c3cccc4c3CCCC4)cc(N3CCCCC3=O)c21 was 3.8

The compound listed as CN1CCN(c2cnc(NCc3c(F)ccc4c3CCO4)n3cnnc23)C1=O shows logD equal to 1.4

# compound O=C1CCCN1c1cccc(C(=O)N(c2ncccc2Cl)[C@@H]2CCCNC2)c1 ; its logD = -0.5
